- test system: Tyrosinase (Agaricus bisporus)
- test name: Binding affinity to mushroom tyrosinase assessed as […]
Calls of active or inactive are those of the source. The calls are words filed in the database; no cut-off is given here.
Outcome codes: YES for active, NO for inactive

| molecule | cat |
| --- | --- |
| O=C1O[B-]2([NH2+][C@H]1Cc1c[nH]c3ccc(O)cc13)C1CCCC2CCC1 (some centres undefined) | NO |
| O=C1O[B-]2([NH2+][C@H]1Cc1ccc(O)cc1)C1CCCC2CCC1 (some centres undefined) | YES |
| O=C1O[B-]2([NH2+][C@H]1Cc1ccc(O)c(O)c1)C1CCCC2CCC1 (some centres undefined) | YES |
| O=C1O[B-]2([NH2+][C@H]1Cc1ccccc1)C1CCCC2CCC1 (some centres undefined) | NO |
